pIC50: −log10 of the molar value.
The reader will find pIC50 measurements below, all made with HCV polymerase 1A (Δ21 NS5B) (Hepatitis C virus genotype 1a, UniProt P27958).
Sequence (P27958 2421-2990, stated change not applied): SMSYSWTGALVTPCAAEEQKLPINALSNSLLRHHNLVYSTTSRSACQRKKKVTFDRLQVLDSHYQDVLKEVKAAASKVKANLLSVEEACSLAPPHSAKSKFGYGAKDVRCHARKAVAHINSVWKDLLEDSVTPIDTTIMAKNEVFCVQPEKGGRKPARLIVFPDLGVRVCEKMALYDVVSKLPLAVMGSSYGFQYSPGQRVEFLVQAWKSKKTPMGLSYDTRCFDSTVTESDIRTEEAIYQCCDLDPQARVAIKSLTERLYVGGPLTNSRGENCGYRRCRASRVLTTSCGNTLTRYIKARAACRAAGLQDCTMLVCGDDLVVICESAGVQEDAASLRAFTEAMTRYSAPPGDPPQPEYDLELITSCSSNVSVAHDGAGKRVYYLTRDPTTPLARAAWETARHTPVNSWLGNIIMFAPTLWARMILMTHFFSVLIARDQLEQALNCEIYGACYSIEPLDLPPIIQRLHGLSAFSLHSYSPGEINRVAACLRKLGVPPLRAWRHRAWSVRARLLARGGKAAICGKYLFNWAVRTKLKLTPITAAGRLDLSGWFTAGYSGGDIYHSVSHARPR

The cases that follow already have their pIC50 on record.
COc1c(Br)cc(-c2c[nH]c(=O)[nH]c2=O)cc1C(C)(C)C [compound 5]; < 6.00
COc1c(-c2ccc3cc(NS(C)(=O)=O)ccc3c2)cc(N2CCOC2=O)cc1C(C)(C)C [compound 25]; 6.00 to 7.00
CC(C)(C)c1cc(-c2c[nH]c(=O)[nH]c2=O)cc(-c2ccc3cc(NS(C)(=O)=O)ccc3c2)c1N [compound 33]; > 8.00
COc1c(Br)cc(-c2c[nH]c(=O)[nH]c2=O)cc1C(F)(F)F [compound 48]; < 6.00
COc1c(-c2ccc3cc(NS(C)(=O)=O)ccc3c2)cc(-c2cn(C)c(=O)[nH]c2=O)cc1C(C)(C)C [compound 7]; > 8.00

Could you report pIC50 for every entry in the following list?
1. COc1c(-c2ccc3c(c2)CC=C3CNS(C)(=O)=O)cc(-c2c[nH]c(=O)[nH]c2=O)cc1-c1ccc(C)o1 [compound 44]
2. COc1c(-c2ccc3cc(NS(C)(=O)=O)ccc3c2)cc(NC(=O)Nc2ccccc2)cc1C(C)(C)C [compound 17]
3. COc1c(-c2ccc3cc(NS(C)(=O)=O)ccc3c2)cc(-c2ccc(F)cc2F)cc1C(C)(C)C [compound 11]

Given back:
["7.00 to 8.00", "< 6.00", "< 6.00"]

Kindly give each listed record's pIC50.
1. CCc1c(-c2ccc3cc(NS(C)(=O)=O)ccc3c2)cc(-c2c[nH]c(=O)[nH]c2=O)cc1C(C)(C)C [compound 36]
2. COc1c(-c2ccc3cc(NS(C)(=O)=O)ccc3c2)cc(N2CCCNC2=O)cc1C(C)(C)C [compound 26]
3. CCOC(=O)CCNC(=O)Nc1cc(-c2ccc3cc(NS(C)(=O)=O)ccc3c2)c(OC)c(C(C)(C)C)c1 [compound 21]

Given back:
1. 7.00 to 8.00
2. 7.00 to 8.00
3. 6.00 to 7.00

Quick one: give me pIC50 for each item below, same order please.
1. COc1c(-c2ccc3cc(NS(C)(=O)=O)ccc3c2)cc(-c2ccc[nH]c2=O)cc1C(C)(C)C [compound 9]
2. COc1c(-c2ccc3cc(NS(C)(=O)=O)ccc3c2)cc(N2CCCC2=O)cc1C(C)(C)C [compound 29]

Given back:
1. > 8.00
2. 7.00 to 8.00

---

Assay read-out pIC50; system under study: HCV polymerase 1A (Δ21 NS5B) (Hepatitis C virus genotype 1a).
pIC50: −log10 of the molar value.

COc1c(-c2ccc3cc(NS(C)(=O)=O)ccc3c2)cc(NC(=O)CCN)cc1C(C)(C)C; < 6.00

Batch request: pIC50 for each of the following molecules.
1. COc1c(-c2ccc3cc(NS(C)(=O)=O)ccc3c2)cc(-c2c[nH]c(=O)[nH]c2=O)cc1-c1ccco1
2. COc1c(-c2ccc3cc(NS(C)(=O)=O)ccc3c2)cc(N2C(=O)CN=C2O)cc1C(C)(C)C

Given back:
> 8.00
> 8.00

Data provenance is patent US9353091B2.
